Here, each record is paired with measured inhibition data.
tested on: methionyl-tRNA synthetase (Trypanosoma brucei brucei); experiment: T. brucei MetRS inhibitors, primary screen, biochemical, luminescence (AID 624268);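 further: 0% = DMSO wells median and 100% = median of wells with control inhibitor compound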; details: purified T. brucei MetRS, ATP depletion, Kinase-Glo luminescence; at 11.9 µM; hits give high values
Screen size: about 360,000 compounds; about 1,500 (0.42%) were called active. Shown is part of a subset that was picked to be rich in actives.
experimental-readout: inhibition (%)

# molecule, experimental-readout, uom, data-value
records = [
    ("Cc1ccc(S(=O)(=O)Nc2nc(CN3CCOCC3)nc3sc(C)c(C)c23)cc1", "inhibition", "%", -0.08),
    ("CN(C)CCn1c(=S)[nH]c2ccc(Cl)cc2c1=O", "inhibition", "%", 0.6),
    ("CC(C)(C)c1ccc(S(=O)(=O)NC(=O)C2(C)CCN2C(=O)CC2CC2)cc1 (stereo not given)", "inhibition", "%", -0.1),
    ("O=C(O)c1cc2c(cc1NC(=O)c1c(F)cccc1Cl)OCCCO2", "inhibition", "%", 0.17),
    ("CCc1c(C)n([O-])c2c([n+]1=O)CCCCC2", "inhibition", "%", -0.95),
    ("c1ccc(-c2ccc3c(c2)NC(C2Nc4cc(-c5ccccc5)ccc4O2)O3)cc1 (stereo not given)", "inhibition", "%", -0.77),
    ("O=C(COC(=O)c1ncc(Cl)c(Cl)c1Cl)NNC(=O)c1ccccc1", "inhibition", "%", -0.19),
    ("C=CCNC(=S)N/N=C/c1ccc(C)s1", "inhibition", "%", -0.64),
    ("CCN(CC)CCNC(=O)c1ccc(NC(=O)c2c(F)cccc2Cl)cc1", "inhibition", "%", -0.39),
    ("CCOC(=O)c1ccc2[nH]c(C)c(CN3CCN(C)CC3)c(=O)c2c1", "inhibition", "%", -0.39),
    ("COC(=O)CCSc1cc([N+](=O)[O-])cc2c1c(C1OCCS1)nn2-c1ccccc1 (stereo not given)", "inhibition", "%", -0.2),
    ("Cc1cc(C)cc(NC(=O)N(C)Cc2ccccc2)c1", "inhibition", "%", 6.26),
    ("O=c1cc(CN2CCCCCCC2)c2c(ccc3ccccc32)o1", "inhibition", "%", 0.63),
    ("O=Cc1c(NCCCN2CCCC2=O)c2ccccc2[nH]c1=O", "inhibition", "%", -0.57),
    ("O=C(Nc1ccc(Cl)cc1)N1CCc2[nH]c3ccccc3c2C1", "inhibition", "%", 64.1),
    ("CCN1CCCC1CNc1ncnc2c1[nH]c1ccc(F)cc12 (stereo not given)", "inhibition", "%", 30.4),
    ("CC(=O)Nc1cc(-c2cccc(CO)c2)cn2c(-c3cccc(C(F)(F)F)c3)cnc12", "inhibition", "%", -0.15),
    ("CCOC(=O)CSc1nc2ccc(C)cc2n2cnnc12", "inhibition", "%", -0.42),
    ("CCN1CCCC1CNC(=O)Cn1cnc2ccc(S(=O)(=O)N3CCC(C)CC3)cc2c1=O (stereo not given)", "inhibition", "%", -0.14),
    ("Fc1ccc(NC(=S)N2CCc3[nH]c4ccccc4c3C2)cc1", "inhibition", "%", 9.22),
    ("CCCNS(=O)(=O)c1ccc2c(c1)CCCN2C(C)=O", "inhibition", "%", -0.19),
    ("Cc1ccc2[nH]c(=O)c(CN3CCCCC3)c(-c3ccccc3)c2c1", "inhibition", "%", 2.15),
    ("CCOC(=O)C(=CNNc1ccsc1C(=O)OC)C(=O)OCC", "inhibition", "%", 0.74),
    ("CCNC(=O)CC1C(=O)N(c2ccc(OC)cc2)C(=O)N1CCOC (stereo not given)", "inhibition", "%", -0.58),
    ("Cc1ccc(CCCOC(=O)C[N+]2(C)CCCC2)cc1", "inhibition", "%", -0.15),
    ("CC1CN(S(=O)(=O)c2cccc(C(F)(F)F)c2)CN1C(=O)N1CCOCC1 (stereo not given)", "inhibition", "%", -0.97),
    ("C[C@H](O)[C@@H]1C(=O)N2CCc3c([nH]c4ccccc34)[C@@H]2C[C@@H]1N(C)C(=O)Nc1ccc(F)cc1", "inhibition", "%", 1.97),
    ("Cc1cc(C(=O)OCC(=O)Nc2ccc(F)c(F)c2)c(C)o1", "inhibition", "%", 0.47),
    ("Cn1ccsc1=NC(=O)c1cc(S(=O)(=O)N2CCOCC2)ccc1Cl", "inhibition", "%", 0),
    ("O=c1c(-c2ccc(Cl)cc2)[n+]([O-])c2ccccc2n1OCc1nc2ccccc2[nH]1", "inhibition", "%", -0.49),
    ("Cc1cc(C)cc(NC(=O)NCc2ccccn2)c1", "inhibition", "%", -0.48),
    ("c1ccc2cc3[nH]c(CN4CCCCC4)nc3cc2c1", "inhibition", "%", 7.35),
    ("CCN1CCCC1Cn1cnc2c([nH]c3cc(OC)ccc32)c1=O (stereo not given)", "inhibition", "%", 0.01),
    ("COc1ccc(C)cc1-n1nnnc1SCc1nc2ccccc2c(=O)[nH]1", "inhibition", "%", 0.31),
    ("Cc1ccc(-c2csc(C(C#N)=C(O)CN3CCN(C(=O)c4ccco4)CC3)n2)cc1", "inhibition", "%", -0.54),
    ("CCOc1ccc(NC(=O)N2CC=C(n3c(=O)[nH]c4ccccc43)CC2)cc1", "inhibition", "%", -0.02),
    ("O=C(Nc1nsc(-c2ccccc2)n1)c1ccncc1", "inhibition", "%", -1.68),
    ("COC(=O)c1c(CCl)noc1C(=O)NC(C)C", "inhibition", "%", -0.34),
    ("Cc1oc(CC(C)C)c(CN2CCCC2)c1C(=O)O", "inhibition", "%", -0.29),
    ("O=C(NNc1cc(Cl)cc(Cl)c1)c1c(F)cccc1Cl", "inhibition", "%", 45.1),
    ("CCOc1ccc2c(c1)c(=O)c(S(=O)(=O)c1ccc(C)cc1)cn2CC", "inhibition", "%", -0.11),
    ("Nc1cc(N)nc(SCc2cccc(F)c2)n1", "inhibition", "%", -0.35),
    ("Cc1ccc(NN=C2C(=O)OC(C)(C)OC2=O)c(C)c1", "inhibition", "%", 0.27),
    ("CCCCc1nnc(NC(=O)CS(=O)(=O)Cc2ccccc2)s1", "inhibition", "%", -0.35),
    ("Cc1ccc(-c2nc(COC(=O)c3c(C)noc3C)cs2)cc1", "inhibition", "%", -0.6),
]
